Sourced from ChEMBL document CHEMBL5346910

# experimental-details: Metabolic stability in rat liver microsomes assessed as parent compound remaining measured for 120 mins by UV-based HPLC analysis
# Format: ADME, Microsome
# condition-set: read-out: Stability
quantity-kind: remaining at 2 h (%)
Provide only the numeric value, understood in %.

# input Field request: remaining at 2 h | item: CN([C@@H](Cc1ccc(C(=N)N)cc1)C(=O)N[C@@H](CCCCN)C(=O)N[C@@H](C(N)=O)c1ccccc1)S(=O)(=O)c1ccccc1
# output 100

----------
inhibition by entry:
# system-tested: Prothrombin (Homo sapiens)
# experimental-details: Inhibition of Thrombin (unknown origin) at 25 uM by biochemical assay relative to control

// known answers, use as guide
N=C(N)NCCC[C@H](NS(=O)(=O)C1CCCCC1)C(=O)N[C@@H](CCCCN)C(=O)N[C@@H](C(N)=O)c1ccccc1 = < 10%
Cc1ccc(S(=O)(=O)N(C)[C@@H](Cc2cccc(N)c2)C(=O)N[C@@H](CCCCN)C(=O)N[C@@H](C(N)=O)c2ccccc2)cc1 = < 10%
N=C(N)NCCC[C@H](NS(=O)(=O)c1ccc(Cl)cc1)C(=O)N[C@@H](CCCCN)C(=O)N[C@@H](C(N)=O)c1ccccc1 = < 10%
CN([C@@H](Cc1ccc(C(=N)N)cc1)C(=O)N[C@@H](CCCCN)C(=O)N[C@@H](C(N)=O)c1ccc(O)cc1)S(=O)(=O)c1ccccc1 = 30.3%
CC(C)c1cc(C(C)C)c(S(=O)(=O)N[C@@H](CCCNC(=N)N)C(=O)N[C@@H](CCCCN)C(=O)N[C@@H](C(N)=O)c2ccccc2)c(C(C)C)c1 = < 10%

# input Field request: inhibition | item: CN([C@@H](Cc1ccc(C(=N)N)cc1)C(=O)N[C@@H](CCCCN)C(=O)N[C@@H](C(N)=O)c1ccc(OCc2ccccc2)cc1)S(=O)(=O)c1ccccc1
# output 22.9%

# input Next compound up: N=C(N)NCCC[C@H](NC(=O)c1ccccc1)C(=O)N[C@@H](CCCCN)C(=O)N[C@@H](C(N)=O)c1ccc(OCc2ccccc2)cc1
# output < 10%

# input Same for CN([C@@H](Cc1ccc(C(=N)N)cc1)C(=O)N[C@@H](CCCCN)C(=O)N[C@@H](C(N)=O)c1ccccc1)S(=O)(=O)c1ccccc1
# output 19.6%

# input And the next one, CN([C@@H](CCCNC(=N)N)C(=O)N[C@@H](CCCCN)C(=O)N[C@@H](C(N)=O)c1ccccc1)S(=O)(=O)c1ccc(Cl)cc1 ?
# output < 10%

# input Item: CN(C)c1cccc2c(S(=O)(=O)N[C@@H](CCCNC(=N)N)C(=O)N[C@@H](CCCCN)C(=O)N[C@@H](C(N)=O)c3ccccc3)cccc12
# output 2.3%

# input Further, for CN([C@@H](Cc1ccc(/C(N)=N/O)cc1)C(=O)N[C@@H](CCCCN)C(=O)N[C@@H](C(N)=O)c1ccccc1)S(=O)(=O)c1ccccc1 ?
# output < 10%

# input Next entry: CN([C@@H](Cc1ccc(C(=N)N)cc1)C(=O)N[C@@H](CCCCN)C(=O)N[C@H](C(N)=O)c1ccc(OCc2ccccc2)cc1)S(=O)(=O)c1ccccc1
# output 23.4%

# input Cool, now CN([C@@H](CCCNC(=N)N)C(=O)N[C@@H](CCCCN)C(=O)N[C@H](C(N)=O)c1ccccc1)S(=O)(=O)c1ccccc1
# output < 10%
